Where do these numbers come from? They come from patent US20120232062A1.

Exercise: for every item that follows, state its recorded concentration at 24 h.
METHOD_NOTES: In vivo rat pharmacokinetic studies
EXPERIMENTAL_PARAMETERS: liver, 20 mg/kg; rat, PO 20 mpk, 24 h; read-out: Liver
Answers are plain numbers, in ng/g.

Please review the following examples before continuing.
1) CCN1CCC(NC(=O)c2nn(C)c3nc(N4CCCCCC4)ccc23)CC1 [EBP1595]
0
2) CC(C)N1CCC(NC(=O)c2nn(C)c3nc(N4CCCCCC4)ccc23)CC1 [EBP1604]
0

Attention now shifts to the item below.
## Task Input Cn1nc(C(=O)NC2CCN(CCN3CCCCC3)CC2)c2ccc(N3CCCCCC3)nc21 [EBP1047] , output reported concentration at 24 h.
## Result 5.35

----------
METHOD_NOTES: In vivo rat pharmacokinetic studies
EXPERIMENTAL_PARAMETERS: liver, 20 mg/kg; rat, PO 20 mpk, 8 h; read-out: Liver
Excerpt: In vivo rat pharmacokinetic studies are designed to measure bioavailability, tissue distribution and metabolite identification in rats after intravenous (IV) and oral (PO) dosing. A full PK study typically includes two study arms (IV and PO) and takes serial blood samples from multiple animals per compound. […]
Exercise: for every item that follows, state its recorded concentration at 8 h.
Answers are plain numbers, in ng/g.

Please review the following examples before continuing.
1) Cn1nc(C(=O)NC2CCN(CCN3CCCCC3)CC2)c2ccc(N3CCCCCC3)nc21 [EBP1047]
563
2) CCN1CCC(NC(=O)c2nn(C)c3nc(N4CCCCCC4)ccc23)CC1 [EBP1595]
132

Attention now shifts to the item below.
## Task Input CC(C)N1CCC(NC(=O)c2nn(C)c3nc(N4CCCCCC4)ccc23)CC1 [EBP1604] , output reported concentration at 8 h.
## Result 43

----------
Tested on: HCV genotype 1b
METHOD_NOTES: HCV 1b replicon luciferase assay
Format: cell-based
EXPERIMENTAL_PARAMETERS: Hepatitis C virus, Huh-7, 48 h, Table 1; Huh7 HCV 1b replicon, luciferase reporter, 48 hours; read-out: 1b EC50
ASSAY_METRIC: pEC50
Give bare numbers, as −log10 of the molar value.

1) Cn1nc(C(=O)NC2CCNCC2)c2ccc(OCc3ccccc3-c3nc4ccccc4s3)nc21 [compound 1066]
5.60
2) CC1CC(NC(=O)c2nn(Cc3ccc(Cl)cc3)c3nc(N4CCCCCC4)ccc23)CCN1 (centres unmarked) [compound 708]
5.62
3) Cn1nc(-c2cnc([C@@H]3CCCN3CC3CCCCC3)s2)c2ccc(N3CCCCCCC3)nc21 [compound 1264]
5.62

Give pEC50 for each of the items listed below.
1. CC(C)CCN1CCC(NC(=O)c2nn(C)c3nc(N4CCCCCCC4)ccc23)CC1C (centres unmarked) [compound 1233]
2. Cn1nc(-c2cnc(C3CCCNC3)s2)c2ccc(N3CCCCCCC3)nc21 (centres unmarked) [compound 1248]
3. Cn1nc(-c2nnc(C3CCNCC3)o2)c2ccc(N3CCCCCC3)nc21 [compound 1125]

## Result
1: 5.28; 2: 5.39; 3: 6.08

Give pEC50 for each of the items listed below.
1. Cc1ccc(CN2CCC(NC(=O)c3nn(C)c4nc(N5CCCCCCC5)ccc34)CC2)cc1 [compound 1224]
2. O=C(NC1CC2CCCC(C1)N2)c1nn(Cc2ccc(Cl)cc2)c2nc(N3CCCCCC3)ccc12 (centres unmarked) [compound 751]

## Result
5.57
5.70

----------
METHOD_NOTES: In vivo rat pharmacokinetic studies
EXPERIMENTAL_PARAMETERS: 20 mg/kg; rat, PO 20 mpk, 0.25 h, liver/plasma; read-out: L/P Ratio
ASSAY_METRIC: Kp at 0.25 h
Numbers only.

Please review the following examples before continuing.
1. Cn1nc(C(=O)NC2CCN(CCN3CCCCC3)CC2)c2ccc(N3CCCCCC3)nc21
78.3
2. CC(C)N1CCC(NC(=O)c2nn(C)c3nc(N4CCCCCC4)ccc23)CC1
618

## Task Input `CCN1CCC(NC(=O)c2nn(C)c3nc(N4CCCCCC4)ccc23)CC1` , output reported Kp at 0.25 h.
## Result 652

----------
TARGET_ENTITY: hERG channel (Homo sapiens)
Construct: host or cells: CHO (Chinese Hamster Ovary), stably transfected
Sequence (Q12809 whole entry): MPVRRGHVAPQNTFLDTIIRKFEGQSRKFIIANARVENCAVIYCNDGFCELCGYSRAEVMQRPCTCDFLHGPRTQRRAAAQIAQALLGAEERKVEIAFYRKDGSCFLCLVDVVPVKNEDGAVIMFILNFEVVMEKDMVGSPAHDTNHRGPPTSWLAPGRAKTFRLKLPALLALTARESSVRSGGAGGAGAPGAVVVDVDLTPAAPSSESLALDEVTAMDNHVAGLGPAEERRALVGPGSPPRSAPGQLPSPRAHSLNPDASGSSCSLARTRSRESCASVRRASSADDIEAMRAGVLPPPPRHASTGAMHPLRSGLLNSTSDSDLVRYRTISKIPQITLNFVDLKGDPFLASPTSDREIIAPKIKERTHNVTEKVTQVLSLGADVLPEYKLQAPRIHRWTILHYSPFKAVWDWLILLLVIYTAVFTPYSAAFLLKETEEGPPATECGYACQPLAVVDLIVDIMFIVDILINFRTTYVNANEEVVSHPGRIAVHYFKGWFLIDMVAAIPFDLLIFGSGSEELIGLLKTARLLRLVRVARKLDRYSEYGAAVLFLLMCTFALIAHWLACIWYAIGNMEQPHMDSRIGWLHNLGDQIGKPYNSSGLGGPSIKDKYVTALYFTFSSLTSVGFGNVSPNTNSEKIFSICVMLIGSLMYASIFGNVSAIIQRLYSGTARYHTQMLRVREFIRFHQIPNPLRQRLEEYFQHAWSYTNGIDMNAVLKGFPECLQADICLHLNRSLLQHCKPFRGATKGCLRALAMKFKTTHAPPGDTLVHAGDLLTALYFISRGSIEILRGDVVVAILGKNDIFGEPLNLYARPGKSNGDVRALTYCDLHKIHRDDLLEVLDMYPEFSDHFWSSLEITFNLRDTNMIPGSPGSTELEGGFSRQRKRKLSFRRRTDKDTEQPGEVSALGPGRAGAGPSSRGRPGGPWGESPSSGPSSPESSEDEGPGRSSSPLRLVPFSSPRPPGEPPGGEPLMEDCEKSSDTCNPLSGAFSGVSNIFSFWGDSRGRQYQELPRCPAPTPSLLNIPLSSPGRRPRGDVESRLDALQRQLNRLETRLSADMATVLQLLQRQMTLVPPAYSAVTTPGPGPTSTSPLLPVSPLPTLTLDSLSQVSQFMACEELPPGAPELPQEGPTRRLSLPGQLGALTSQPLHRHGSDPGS
METHOD_NOTES: hERG channel assay
Format: cell-based
EXPERIMENTAL_PARAMETERS: CHO cell line expressing hERG, whole cell recordings
pIC50: −log10 of the molar value.
ASSAY_METRIC: pIC50

Please review the following examples before continuing.
1) Cn1nc(C(=O)NC2CCNCC2)c2ccc(N3CCCCCC3)nc21.O=C(O)C(F)(F)F.O=C(O)C(F)(F)F
< 5.00
2) O=C(NCC1CCNCC1)c1n[nH]c2nc(N3CCCCCC3)ccc12
< 5.00
3) CCC(CC)Oc1ccc2c(C(=O)NC3CCNCC3)n[nH]c2n1
< 5.00
4) Cn1nc(NC(=O)c2cccs2)c2ccc(N3CCCCCC3)nc21
< 5.00
5) Cn1nc(C(=O)NC2CCN(CCN3CCCCC3)CC2)c2ccc(N3CCCCCC3)nc21
5.02

Give pIC50 for each of the items listed below.
1. O=C(Nc1n[nH]c2nc(N3CCCCCC3)ccc12)C1CCNCC1
2. Clc1ccc(Cn2nc(COCCCN3CCCCC3)c3ccc(N4CCCCCC4)nc32)cc1
3. CC(C)CN(C)c1ccc2c(C(=O)NC3CCNCC3)n[nH]c2n1

## Result
1. < 5.00
2. 5.48
3. < 5.00

----------
METHOD_NOTES: In vivo rat pharmacokinetic studies
EXPERIMENTAL_PARAMETERS: liver, 40 mg/kg; rat, PO 40 mpk, 0.25 h; read-out: Liver
Source text: In vivo rat pharmacokinetic studies are designed to measure bioavailability, tissue distribution and metabolite identification in rats after intravenous (IV) and oral (PO) dosing. A full PK study typically includes two study arms (IV and PO) and takes serial blood samples from multiple animals per compound. […]
ASSAY_METRIC: concentration at 0.25 h (ng/g)
Answers are plain numbers, in ng/g.

## Task Input `Cn1nc(C(=O)NC2CCN(CCN3CCCC3)CC2)c2ccc(N3CCCCCC3)nc21` , output reported concentration at 0.25 h.
## Result 2620

----------
Exercise: for every item that follows, state its recorded EC50.
System: HCV genotype 1b
METHOD_NOTES: HCV 1b replicon luciferase assay
Format: cell-based
EXPERIMENTAL_PARAMETERS: Hepatitis C virus, Huh-7, 48 h, Table 1; Huh7 HCV 1b replicon, luciferase reporter, 48 hours; read-out: 1b EC50
Give bare numbers, in µM.

1. Cn1nc(C(=O)NC2CCN(CCN3CCC[C@H]3CO)CC2)c2ccc(N3CCCCCC3)nc21
3.8
2. O=C(CC1CCNCC1)Nc1nn(Cc2ccc(Cl)cc2)c2nc(N3CCCC3)ccc12
6.8
3. Cn1nc(C(=O)NC2CCN(CC3CCCCC3)CC2)c2ccc(N3CCCCCCC3)nc21
0.356

## Task Input `O=C(NC1CCNCC1)c1nn(Cc2ccc(Cl)cc2)c2nc(N3CCCCCC3)ccc12` , output reported EC50.
## Result 2.5

----------
METHOD_NOTES: In vivo rat pharmacokinetic studies
EXPERIMENTAL_PARAMETERS: liver, 40 mg/kg; rat, PO 40 mpk, 12 h; read-out: Liver
ASSAY_METRIC: concentration at 12 h (ng/g)
One number for each entry, in ng/g.

## Task Input `Cn1nc(C(=O)NC2CCN(CCN3CCCC3)CC2)c2ccc(N3CCCCCC3)nc21` , output reported concentration at 12 h.
## Result 1030

----------
METHOD_NOTES: Liver microsome stability, human
Type: in vitro ADME
EXPERIMENTAL_PARAMETERS: after 60 min
# if measured human liver microsome (HLM, % parent remaining) < 10 % parent remaining: True  # else: False

1. CC1CCCN1CCCc1nn(C)c2nc(N3CCCCCCC3)ccc12 (stereo not shown)
True
2. CC1CCCCN1CCOCc1nn(C)c2nc(N3CCCCCC3)ccc12 (stereo not shown)
False
3. CCN1CCC(NC(=O)c2nn(C)c3nc(N4CCCCCC4)ccc23)CC1 [compound 1595]
False

## Task Dear reviewer, please state whether Cn1nc(C(=O)NC2CCN(CCN3CCCCC3CO)CC2)c2ccc(N3CCCCCC3)nc21 (stereo not shown) has human liver microsome (HLM, % parent remaining) strictly beneath 10 % parent remaining.
## Result True

## Task Dear reviewer, please state whether Cn1nc(C(=O)NC2CCN(CCN3CCCCC3)CC2)c2ccc(N3CCCCCC3)nc21 [compound 1047] has human liver microsome (HLM, % parent remaining) strictly beneath 10 % parent remaining.
## Result False

## Task Dear reviewer, please state whether `CC(C)N1CCC(NC(=O)c2nn(C)c3nc(N4CCCCCC4)ccc23)CC1` has human liver microsome (HLM, % parent remaining) strictly beneath 10 % parent remaining.
## Result False

## Task Dear reviewer, please state whether CCN1CCC(NC(=O)c2nn(C)c3nc(N4CCCCCC4)ccc23)CC1 [EBP1595] has human liver microsome (HLM, % parent remaining) strictly beneath 10 % parent remaining.
## Result False
